pKi: −log10 of the molar value.
Consider the following pKi data for Tyrosine-protein kinase JAK3 (Homo sapiens, UniProt P52333), collected from several reports.

>>> result("Nc1ccc(Nc2nc(N)n(-c3ncc(F)c(N4CCCC4C(=O)NCC(F)(F)F)n3)n2)cc1 (stereo not drawn)")
"≥ 6.00"

What reported pKi corresponds to O=C(NCC(F)(F)F)C1COCCN1c1cnc(-c2c[nH]c3ncncc23)nc1 (stereo not drawn) on Tyrosine-protein kinase JAK3 (Homo sapiens, UniProt P52333)?
> 6.30

Same lookup for Cc1ccc(-c2c(N)nn3cc(-c4ccncc4)cnc23)nc1 , please.
< 5.30

Same lookup for Fc1cccc(C2Nc3ccccc3-c3ncnc4[nH]cc2c34)c1 (stereo not drawn) , please.
< 5.60

###

Consider the following Ki data for Tyrosine-protein kinase JAK3 (Homo sapiens, UniProt P52333), collected from several reports.

>>> result("Fc1ccccc1C1Nc2ccccc2-c2ccnc3[nH]cc1c23 (stereo not shown)")
"250 to 2500 nM"
>>> result("Cc1ccccc1Nc1nccc(-c2ccc3c(c2)NC(=O)CO3)n1")
"< 1000 nM"
>>> result("Fc1ccc(-c2cnc3[nH]cc(-c4oncc4-c4cccc(F)c4F)c3c2)cn1")
"200 to 1000 nM"

What value of Ki has been reported for the following compound? CCCC(=O)N1CCCN(c2cc(-n3cnc(Nc4ccccc4)n3)ccn2)CC1
10 to 1000 nM

Same lookup for O=C(NCC(F)(F)F)[C@H]1CCCN1c1nc(-c2c[nH]c(C(=O)N3CCCC3)c2)ncc1F , please.
1000 to 10000 nM

Same lookup for Cc1cccnc1-c1c(N)nn2cc(-c3ccncc3)cnc12 , please.
> 5000 nM

Same lookup for CN(C)CCCN(C)c1cc(-n2cnc(Nc3ccccc3)n2)ccn1 , please.
> 1000 nM

Same lookup for Cc1cnc2c(-c3cc(N[C@@H]4CCC[C@H]4OCc4ccccc4)ncn3)c(N)nn2c1 , please.
500 to 5000 nM

Same lookup for CC(C)CN(CCC(F)(F)F)C(=O)c1cc(-c2ncnc3[nH]ccc23)co1 , please.
100 to 500 nM

Same lookup for Nc1nn2cccnc2c1-c1cc(NCc2cc(C(F)(F)F)ccc2F)ncn1 , please.
100 to 500 nM

Same lookup for CC(C(=O)NCc1ccccc1)n1cc(-c2ncnc3[nH]ccc23)cn1 (stereo not shown) , please.
100 to 500 nM

Same lookup for N#CC1CCCN1C(=O)c1cc(-c2ncnc3[nH]ccc23)c[nH]1 (stereo not shown) , please.
100 to 500 nM

Same lookup for Cc1cccc(Nc2nccc(-c3ccc4c(c3)N(C)C(=O)CO4)n2)c1 , please.
< 1000 nM

Same lookup for Cc1cnc2c(-c3cc(N4CCCC(C)C4)ncn3)c(N)nn2c1 (stereo not shown) , please.
< 500 nM

Same lookup for CC(C)(Nc1ccnc(-c2c[nH]c(C(=O)N3CC=CC3)c2)n1)C(=O)NCC(F)(F)F , please.
≤ 1000 nM

Same lookup for C[C@H](Nc1cc(C(=O)N2CCC(O)CC2)nc(-c2c[nH]c3ncncc23)n1)C(=O)NCC(F)(F)F , please.
500 to 5000 nM

Same lookup for Oc1ccc(C2Nc3ccccc3-c3ccnc4[nH]cc2c34)c(Cl)c1 (stereo not shown) , please.
≤ 250 nM

Same lookup for C[C@H](Nc1cc(-c2cnn3cccnc23)nc(OCCNC(C)(C)C)n1)c1ccc(F)cc1F , please.
10 to 100 nM

Same lookup for CCCNC(=O)Nc1ccc(Nc2ncn(-c3ccnc(N4C[C@@H](C)N(C(C)=O)[C@@H](C)C4)c3)n2)cc1 , please.
10 to 1000 nM

Same lookup for Nc1nn2cc(-c3ccc(N4CCC[C@H]4CN4CCCC4)nc3)cnc2c1-c1ccccn1 , please.
> 5000 nM

Same lookup for O=C(COc1ccccc1)Nc1ccc(-c2ccnc(Nc3cccc(O)c3)n2)cc1 , please.
≤ 1000 nM

Same lookup for NS(=O)(=O)c1cccc(Nc2nccc(-c3ccc4c(c3)N(Cc3cccnc3)C(=O)CO4)n2)c1 , please.
< 5000 nM

Same lookup for Fc1cccc(-c2cnoc2-c2c[nH]c3ncc(CCn4cncn4)cc23)c1F , please.
1000 to 12500 nM

Same lookup for OCC1CCN(c2ccc(-c3cnc4[nH]cc(-c5nncn5-c5cccc(F)c5F)c4c3)cn2)CC1 , please.
1000 to 12500 nM

Same lookup for CC(C)C[C@@H](Nc1nc(-c2cn(C)c3ncc(Cl)cc23)ncc1F)C(=O)NCC(F)(F)F , please.
≥ 100 nM

Same lookup for Oc1c(Cl)cc(C2Nc3ccccc3-c3ccnc4[nH]cc2c34)cc1Cl (stereo not shown) , please.
≤ 250 nM
